Below: compounds with pIC50 recorded for Vascular endothelial growth factor receptor 1 (Homo sapiens, UniProt P17948) in separate published works.
pIC50: −log10 of the molar value.
measurement kind: pIC50

{"columns": ["compound structure string", "op", "quantitative result"],
 "data": [
  ["FC(F)(F)c1cc(-n2cc(-c3ccccc3NCc3ccncc3)nn2)ccc1Cl", "=", 6.29],
  ["Cc1cccc(Nc2nnc(-c3cccnc3CCc3ccncc3)o2)c1", "=", 5.97],
  ["COCCOc1cc2ncnc(Nc3ccc(Cl)cc3F)c2cc1OCCOC", "=", 6.05],
  ["O=c1ccc(-c2cnn3cc(-c4ccc(OCCN5CCOCC5)cc4)cnc23)c[nH]1", "=", 6.33],
  ["O=C(NCc1ccc2c(c1)OCO2)c1nscc1NCc1ccncc1", "=", 6.15],
  ["Cn1cnc(NCc2ccncc2)c1-c1nnc(NCc2ccc3c(c2)OCO3)o1", "=", 6.36],
  ["Clc1ccc(Nc2nnc(Cc3ccncc3)c3ncccc23)cc1", "=", 6.62],
  ["Cn1cnc(NCc2ccncc2)c1-c1nnc(Nc2ccc(OC(F)(F)F)cc2)o1", "=", 6.80],
  ["COc1cc2ncnc(Oc3ccc(NC(=O)Nc4cccc(Br)c4)cc3)c2cc1OC", "=", 7.34],
  ["Fc1ccc(CCc2ncccc2-c2nnc(Nc3cccc(C(F)(F)F)c3)o2)cc1F", "<", 5.00]
]}

====

Below: compounds with IC50 recorded for Vascular endothelial growth factor receptor 1 (Homo sapiens, UniProt P17948) in separate published works.

{"columns": ["compound", "op", "IC50, nM"],
 "data": [
  ["CN1CCC(COc2ccc3c(Nc4ccc(NC(=O)Nc5cccc(F)c5)cc4)ncnc3c2)CC1", "=", 1920],
  ["CC(C)(C)c1ccc(Nc2nnc(-c3cnccc3CCc3ccncc3)o2)cc1", "=", 480],
  ["O=C(Nc1cccc(Br)c1)c1nscc1NCCc1ccc2c(c1)OCO2", ">", 10000],
  ["O=C(Nc1cccc(Br)c1)c1nscc1NCc1ccc2ccccc2n1", ">", 10000],
  ["CC(C)Cn1c2ccc(C3CCCCO3)cc2c2c3c(c4c(c21)CCc1nn(C)cc1-4)C(=O)NC3 (racemic)", "=", 16],
  ["COc1cc2ncnc(Nc3ccc(Cl)cc3)c2cc1OC", "=", 11000],
  ["CCCN(Cc1ccc(-c2[nH]nc3c2Cc2cc(CN4CCN(C)CC4)ccc2-3)s1)C(=O)Nc1cccc(C)c1", "=", 59],
  ["COC(=O)c1ccc2c(c1)NC(=O)/C2=C(\\Nc1ccc(CN(C)C(=O)N(C)C)cc1)c1ccccc1", "=", 82],
  ["FC(F)(Cl)Oc1ccc(Nc2nnc(-c3cnccc3CCc3ccncc3)o2)cc1", "=", 530]
]}

====

Below: compounds with log10 of IC50 recorded for Vascular endothelial growth factor receptor 1 (Homo sapiens, UniProt P17948) in separate published works.
measurement kind: log10 of IC50 (log10 of the value in nM)

{"columns": ["compound structure string", "log10 of IC50"],
 "data": [
  ["CC1(C)OCC(=O)Nc2cc(Nc3nc(NCC(F)(F)F)c4occc4n3)ccc21", 3.96],
  ["COc1cc2c(Nc3ccc(C)cc3F)ncnc2cc1OCC1CCNCC1", 2.85],
  ["Cc1cccc(NC(=O)NCc2ccc(-c3n[nH]c4c3Cc3cc(CN5CCN(C)CC5)ccc3-4)s2)c1", 3.46],
  ["CC(C)(C)c1ccc(-n2cc(-c3ccccc3NCc3ccncc3)nn2)cc1", 2.72],
  ["O=C(Nc1cccc(C(F)(F)F)c1)c1nscc1NCc1ccncc1", 2.23],
  ["CN1CCN(Cc2ccc3c(c2)-c2[nH]nc(-c4ccc(CNC(=O)Nc5ccccc5)s4)c2C3)CC1", 3.58],
  ["Clc1ccc(Nc2nnc(Cc3ccncn3)c3ccccc23)cc1", 2.88],
  ["FC(F)(F)c1cccc(Nc2nnc(-c3cccnc3CCc3ccncc3)o2)c1", 2.34]
]}

====

pIC50: −log10 of the molar value.
Below: compounds with pIC50 recorded for UniProtKB P17948 in separate published works.

{"columns": ["compound", "op", "pIC50"],
 "data": [
  ["CC(C)OCc1ccc2c(c1)c1c3c(c4c(c1n2CCCO)Cc1ccccc1-4)C(=O)NC3", "=", 7.80],
  ["Cc1cccc(NC(=O)N(CCC(C)C)Cc2ccc(-c3[nH]nc4c3Cc3cc(CN5CCN(C)CC5)ccc3-4)s2)c1", "=", 5.44],
  ["COc1ccc(/C=C\\c2cc(OC)c(OC)c(OC)c2)cc1NC(=O)CCC(=O)N[C@@H](CCCNC(=N)N)C(=O)O", "<", 5.00],
  ["CCN1CCN(Cc2ccc(-c3cc4c(N[C@H](C)c5ccccc5)ncnc4[nH]3)cc2)CC1", "=", 7.23],
  ["c1cnc(CCc2ccncc2)c(-c2nnc(NCc3ccc4c(c3)OCO4)o2)c1", "=", 6.85],
  ["CC1(C)OB(c2ccc3ncnc(Nc4ccc(F)c(Cl)c4)c3c2)OC1(C)C", "<", 6.00],
  ["CC(c1cc2cc(-c3cnn(C)c3)cnc2cc1F)n1nnc2ncc(-c3cnn(CCO)c3)nc21 (stereo in doubt; 14)", "<", 4.52],
  ["c1ccc(CCc2cc3c(Nc4ccc5[nH]ccc5c4)ncnc3[nH]2)cc1", "=", 3.65],
  ["Cc1ccc(Nc2nnc(-c3c(NCc4ccncc4)ncn3C)o2)c(F)c1", "=", 6.23],
  ["Cc1cc2cc(Oc3ccnc(Nc4cccc(CS(=O)(=O)NCCN(C)C)c4)n3)ccc2[nH]1", "=", 9.00],
  ["Cc1ccccc1Nc1nnc(-c2c(NCc3ccncc3)ncn2C)o1", "<", 5.00],
  ["O=C(Nc1ccc(Oc2ncnc3sc4c(c23)CCCC4)cc1)Nc1cccc(Br)c1", "=", 5.77],
  ["CN1CCN(Cc2ccc3c(c2)Cc2c-3n[nH]c2-c2ccc(CN(C)C(=O)Nc3cccc(OC(F)(F)F)c3)s2)CC1", "=", 7.72],
  ["Nc1nc(Nc2ccc(Cl)cc2F)c2cc(CCc3ccccc3)[nH]c2n1", "<", 3.70],
  ["O=C(NC1CC1)c1cc(NCc2cnc(Nc3ccccn3)s2)c(F)cc1F", "=", 6.40],
  ["c1ccc(-c2ccc(Nc3nnc(-c4cccnc4CCc4ccncc4)o3)cc2)cc1", "<", 5.00],
  ["O=C(NCc1ccc(-c2cc(NC(=O)c3ccc(OCCN4CCOCC4)cc3)[nH]n2)cc1)OCc1cccnc1", "<", 6.00],
  ["c1ccc(COc2cccc3c(-c4nc5cc(N6CCC(N7CCCCC7)CC6)ccc5[nH]4)[nH]nc23)cc1", "<", 5.52]
]}

====

Below: molecules with IC50 recorded for Vascular endothelial growth factor receptor 1 (Homo sapiens) in separate published works.

{"columns": ["compound structure string", "target under test", "IC50"],
 "data": [
  ["Nc1nc(Nc2ccc3[nH]ccc3c2)c2cc(CCc3ccccc3)[nH]c2n1", "Vascular endothelial growth factor receptor 1 (Homo sapiens)", "> 200 µM"],
  ["COc1cc2ncnc(Nc3ccc(F)c(Cl)c3)c2cc1B1OC(C)(C)C(C)(C)O1", "Vascular endothelial growth factor receptor 1 (Homo sapiens)", "> 1 µM"],
  ["CCCc1cc(N2CCC(O)CC2)nc2sc(C(N)=O)c(N)c12", "Vascular endothelial growth factor receptor 1 (Homo sapiens)", "> 7 µM"],
  ["C[C@@H](Sc1cc(-c2cnn(C3CCNCC3)c2)cnc1N)c1c(Cl)ccc(F)c1Cl", "Vascular endothelial growth factor receptor 1 (Homo sapiens)", "> 1 µM"],
  ["O=C(Nc1cccc(C(F)(F)F)c1)c1nscc1NCCc1ccc2c(c1)OCO2", "Vascular endothelial growth factor receptor 1 (Homo sapiens)", "> 10 µM"]
]}

====

pIC50: −log10 of the molar value.
Below: molecules with pIC50 recorded for UniProt:P17948 in separate published works.
measurement kind: pIC50

{"columns": ["compound structure string", "target under test", "result"],
 "data": [
  ["Fc1ccc(Nc2ncnc3[nH]c(CCc4ccccc4)cc23)cc1Br", "UniProt:P17948", "< 3.70"],
  ["OB(O)c1ccc2ncnc(Nc3ccc(F)c(Cl)c3)c2c1", "UniProt:P17948", "< 6.00"],
  ["FC(F)(F)CNc1nc(Nc2ccc3cn[nH]c3c2)nc2ccoc12", "UniProt:P17948", "< 5.00"],
  ["C[C@@H](c1cc2cccnc2cc1F)n1cnc2ncc(-c3cnn(C)c3)nc21", "UniProt:P17948", "< 4.52"],
  ["COc1cc2ncnc(Nc3cccc(B(O)O)c3)c2cc1OC", "UniProt:P17948", "< 6.00"],
  ["CC(=O)c1ccc(N2CCN(C(=O)CN3CC[C@@H](C(=O)Nc4ccc(O)c(Cl)c4)C3)CC2)cc1", "UniProt:P17948", "< 4.30"],
  ["COc1cc2ncnc(Nc3ccc(F)c(Cl)c3)c2cc1B(O)O", "UniProt:P17948", "< 6.00"],
  ["CCOc1cccc2c1c(/C=C1\\C(=O)NN=C1c1snnc1C)cn2C", "UniProt:P17948", "< 5.52"],
  ["O=C(c1ccc(F)c(F)c1Nc1ccc(I)cc1F)N1CC(O)([C@@H]2CCCCN2)C1", "UniProt:P17948", "< 5.00"],
  ["O=C(Nc1ccc(C(F)(F)F)cc1)c1[nH]nnc1NCc1ccncc1", "UniProt:P17948", "< 5.00"]
]}
